I'd appreciate it if you could supply normalized RNA/DNA level with ligand (log10) values for the items below.
B1: library; a variant is named by its letters at N, in order (parent)
chain: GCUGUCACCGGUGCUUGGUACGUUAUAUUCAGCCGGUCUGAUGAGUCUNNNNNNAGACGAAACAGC

- Variants of: B1
- assay-comment: normalized RNA/DNA level with ligand (relative to sTRSVctl = 100) (log10 (% of sTRSVctl)); HEK293T overexpressing SLC46A1; ligand concentration (+) RNA-Seq: 6 mM; higher = less ribozyme self-cleavage, higher mRNA level
- condition-info: with (6R,S)-folinic acid; ligand present: yes
Lab note: write the figure by itself, no unit.

May I ask what normalized RNA/DNA level with ligand (log10) has been recorded for AUGAGA ?
2.01

Which normalized RNA/DNA level with ligand (log10) is listed for AGGCGA ?
2.06

// returns reported normalized RNA/DNA level with ligand (log10) for input CUGAUG
2.01

Looking for the measured normalized RNA/DNA level with ligand (log10) of GCAUAG , can you help?
2.02

Which normalized RNA/DNA level with ligand (log10) is listed for UUUUCU ?
2.01

Given the variant UCCCGG , what is its reported normalized RNA/DNA level with ligand (log10)?
2.05

Any idea what its normalized RNA/DNA level with ligand (log10) is? The variant is UUUUUC
2.01

Return reported normalized RNA/DNA level with ligand (log10); argument: AGUGUU
2.04

Entry CUUAAA : reported normalized RNA/DNA level with ligand (log10) = ?
1.97
